Origin of values: BigSolDB 2.1

# Condition Details: in ethyl acetate, 318.15 K

{"Compound": "CCOc1ccc(C2NC(=O)NC=C2C(=O)c2cc(OC)c(OC)c(OC)c2)cc1 (stereo unspecified)", "solubility (mole fraction)": 0.00345}

* * *

# Condition Details: in PEG-400, 308.15 K
Measured Attribute: solubility (mole fraction)

{"Compound": "CCOc1ccc(C2NC(=O)NC=C2C(=O)c2cc(OC)c(OC)c(OC)c2)cc1 (stereo unspecified)", "Observed": 0.00831}

* * *

# Condition Details: in sec-butanol, 313.15 K

{"Compound": "CCOc1ccc(C2NC(=O)NC=C2C(=O)c2cc(OC)c(OC)c(OC)c2)cc1 (stereo unspecified)", "solubility (mole fraction)": 0.00124}

* * *

# Condition Details: in ethylene glycol, 308.15 K

{"Compound": "CCOc1ccc(C2NC(=O)NC=C2C(=O)c2cc(OC)c(OC)c(OC)c2)cc1 (stereo unspecified)", "solubility (mole fraction)": 0.000697}
